target: Axl (Homo sapiens); experiment: HTRF KinEASE-TK biochemical potency assay, AXL; design: purchased Invitrogen; settings: 5 nM AXL, 700 μM ATP, 800 nM TK Substrate-biotin
Sequence (P30530 26-894): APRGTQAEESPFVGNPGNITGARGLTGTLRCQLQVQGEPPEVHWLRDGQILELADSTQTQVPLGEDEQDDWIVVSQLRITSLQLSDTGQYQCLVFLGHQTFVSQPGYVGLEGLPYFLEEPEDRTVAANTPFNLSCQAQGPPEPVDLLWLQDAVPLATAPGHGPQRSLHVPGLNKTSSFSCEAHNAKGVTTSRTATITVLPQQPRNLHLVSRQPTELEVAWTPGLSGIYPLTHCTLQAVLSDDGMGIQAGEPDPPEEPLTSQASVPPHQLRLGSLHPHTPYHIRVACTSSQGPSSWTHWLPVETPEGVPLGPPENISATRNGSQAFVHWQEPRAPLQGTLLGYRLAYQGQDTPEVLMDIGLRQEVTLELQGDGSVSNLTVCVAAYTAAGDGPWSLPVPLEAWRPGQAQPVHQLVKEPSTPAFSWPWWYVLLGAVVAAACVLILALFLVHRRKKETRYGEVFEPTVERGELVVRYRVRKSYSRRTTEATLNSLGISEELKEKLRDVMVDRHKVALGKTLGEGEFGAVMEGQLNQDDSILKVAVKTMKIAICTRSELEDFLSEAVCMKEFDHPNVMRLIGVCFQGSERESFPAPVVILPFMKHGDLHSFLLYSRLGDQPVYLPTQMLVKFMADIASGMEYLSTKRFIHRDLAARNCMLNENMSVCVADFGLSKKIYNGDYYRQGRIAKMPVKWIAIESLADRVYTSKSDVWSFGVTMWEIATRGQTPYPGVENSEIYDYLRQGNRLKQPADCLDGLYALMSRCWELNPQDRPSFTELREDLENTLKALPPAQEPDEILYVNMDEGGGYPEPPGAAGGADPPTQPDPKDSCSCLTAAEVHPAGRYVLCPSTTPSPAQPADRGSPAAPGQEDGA
pIC50: −log10 of the molar value.
Property: pIC50; scope: individual compounds

Worked examples follow.
COMPOUND	pIC50
C[C@@H]1CCCN1C1(C)CCc2ccc(-c3cnc4[nH]nc(-c5ccc(C(C)(C)O)nc5)c4c3)cc2CC1 (stereo partly drawn) [Example 22]	> 7.00
COCCN1CCc2ccc(-c3cnc4[nH]nc(-c5ccc(C(C)(C)O)c(Cl)c5)c4c3)cc2CC1 [Example 34]	> 7.00
C[C@@H]1CCCN1C1CCc2ccc(-c3cnc4[nH]nc(-c5ccc(C(C)(C)O)c(C(F)(F)F)c5)c4c3)cc2CC1 (stereo partly drawn) [Example 20]	> 7.00
CC(C)(O)c1ccc(-c2c[nH]c3ncc(-c4ccc5c(c4)CCC(N4CCCC4)CC5)cc23)cc1Cl (stereo not drawn) [Example 106]	> 7.00
FC1CN(c2ccc(-c3c[nH]c4ncc(-c5ccc6c(c5)CC[C@@H](N5C7COCC5C7)CC6)cc34)cc2)C1 [Example 127]	> 7.00

Please look at the following compound next.
Look up and state reported pIC50 for C[C@H]1CCCN1C1CCc2ccc(-c3cnc4[nH]nc(-c5ccc(S(=O)(=O)C6CC6)cc5)c4c3)cc2CC1 (stereo partly drawn) [Example 24]
> 7.00
